Measured values drawn from paper PMC6637425 for this set.

Molecular target: BACE2 enzyme (Homo sapiens)
Sequence (Q9Y5Z0 63-518): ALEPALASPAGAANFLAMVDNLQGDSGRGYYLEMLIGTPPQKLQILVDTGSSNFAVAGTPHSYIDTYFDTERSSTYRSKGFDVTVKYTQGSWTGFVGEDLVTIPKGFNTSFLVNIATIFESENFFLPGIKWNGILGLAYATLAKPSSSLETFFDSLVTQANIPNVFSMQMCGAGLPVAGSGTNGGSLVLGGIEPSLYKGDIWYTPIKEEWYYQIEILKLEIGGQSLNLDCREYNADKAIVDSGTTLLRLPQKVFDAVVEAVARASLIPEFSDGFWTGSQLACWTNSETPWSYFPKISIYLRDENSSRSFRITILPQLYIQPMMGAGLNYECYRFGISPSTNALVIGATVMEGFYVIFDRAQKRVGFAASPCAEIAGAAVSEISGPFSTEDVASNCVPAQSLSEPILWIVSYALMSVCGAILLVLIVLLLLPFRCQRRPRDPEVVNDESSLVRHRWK
Experiment: BACE2 enzyme inhibition, Ki from kinetic data under tight-binding conditions
Assay type: biochemical
Details: read-out: Ki (nM) BACE2; Table 3
parameter-measured: Ki (nM)

molecule="COc1cccc(CNC[C@@H](O)[C@H](Cc2ccccc2)NC(=O)c2cc(C)cc(C(=O)N(C)C(C)c3nc(C)co3)c2)c1 (mixture of isomers) [inhibitor 3o]" units_text=nM reported_measurement=801
molecule="COc1cccc(CNC[C@@H](O)[C@H](Cc2ccccc2)NC(=O)c2cc(C)cc(C(=O)N(C)[C@H](C)c3ccccc3)c2)c1 [inhibitor 3j]" units_text=nM reported_measurement=14
molecule="COc1cccc(CNC[C@@H](O)[C@H](Cc2ccccc2)NC(=O)c2cccc(C(=O)N(C)[C@H](C)c3ccccc3)c2)c1 [inhibitor 3i]" units_text=nM reported_measurement=39.5
molecule="Cc1cc(C(=O)N[C@@H](Cc2ccccc2)[C@H](O)CNCc2cccc(C(F)(F)F)c2)cc(C(=O)N(C)[C@H](C)c2ccccc2)c1 [inhibitor 3l]" units_text=nM reported_measurement=1.6

###

Target: BACE1 enzyme (Homo sapiens)
Sequence (P56817 46-501): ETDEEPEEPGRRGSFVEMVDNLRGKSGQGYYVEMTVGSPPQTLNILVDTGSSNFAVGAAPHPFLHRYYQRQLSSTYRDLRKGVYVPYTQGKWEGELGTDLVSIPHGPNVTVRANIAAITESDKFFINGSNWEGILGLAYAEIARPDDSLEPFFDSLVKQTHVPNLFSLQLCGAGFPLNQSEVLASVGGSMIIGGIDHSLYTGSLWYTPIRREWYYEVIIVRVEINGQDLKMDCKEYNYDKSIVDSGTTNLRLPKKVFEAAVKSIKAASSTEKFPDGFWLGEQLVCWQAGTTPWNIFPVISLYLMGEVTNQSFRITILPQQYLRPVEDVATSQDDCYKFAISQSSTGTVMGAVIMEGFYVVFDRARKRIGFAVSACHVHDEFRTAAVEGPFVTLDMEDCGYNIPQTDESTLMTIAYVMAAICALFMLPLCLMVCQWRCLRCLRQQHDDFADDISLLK
Assay: BACE1 enzyme inhibition, Ki from kinetic data under tight-binding conditions
Assay type: biochemical
Details: read-out: BACE1 Ki
pKi: −log10 of the molar value.
parameter-measured: pKi

smiles_repr=COc1cccc([C@@H](NC[C@@H](O)[C@H](Cc2ccccc2)NC(=O)c2cc(C(=O)N[C@H](C)c3ccccc3)cc(N(C)S(C)(=O)=O)c2)[C@H](C)O)c1 reported_measurement=6.69

###

We begin with a simple list: items and their reported Ki.
Target: BACE1 enzyme (Homo sapiens)
Test: BACE1 enzyme inhibition, Ki from kinetic data under tight-binding conditions
Format: biochemical
Conditions: read-out: Ki (nM) BACE1; Table 3
parameter-measured: Ki (nM)

molecule=COc1cccc(CNC[C@@H](O)[C@H](Cc2ccccc2)NC(=O)c2cccc(C(=O)N(C)[C@H](C)c3ccccc3)c2)c1 reported_measurement=2080
molecule=Cc1cc(C(=O)N[C@@H](Cc2ccccc2)[C@H](O)CNCc2cccc(C(F)(F)F)c2)cc(C(=O)N(C)[C@H](C)c2ccccc2)c1 reported_measurement=815
molecule=COc1cccc(CNC[C@@H](O)[C@H](Cc2ccccc2)NC(=O)c2cc(C)cc(C(=O)N(C)[C@H](C)c3ccccc3)c2)c1 reported_measurement=837
molecule="COc1cccc(CNC[C@@H](O)[C@H](Cc2ccccc2)NC(=O)c2cc(C)cc(C(=O)N(C)C(C)c3nc(C)co3)c2)c1 (mixture of isomers)" reported_measurement=767
